Measured viability, T/C by item
Test system: 885512-296-R-J2-PDC complex spheroid viability
Assay: Anticancer human tumor 885512-296-R-J2-PDC patient-derived breast carcinoma cell line growth inhibition [GQUAD]
Conditions: second compound 3.16 µM; first compound 0.000999 µM; stronger effect = lower value
quantityName: viability, T/C

[
  {
    "compound": "CC[C@@]1(O)C(=O)OCc2c1cc1n(c2=O)Cc2cc3c(CN(C)C)c(O)ccc3nc2-1 + Cc1cnc(CNC(=O)c2c(=O)c3ccc(N4CCCN(C)CC4)nc3n3c2sc2ccccc23)cn1",
    "quantityName": "viability, T/C",
    "val": "29.7%"
  },
  {
    "compound": "Cn1ncnc1[C@H]1c2n[nH]c(=O)c3cc(F)cc(c23)N[C@@H]1c1ccc(F)cc1 + Cc1cnc(CNC(=O)c2c(=O)c3ccc(N4CCCN(C)CC4)nc3n3c2sc2ccccc23)cn1",
    "quantityName": "viability, T/C",
    "val": "30.3%"
  },
  {
    "compound": "Cc1[nH]c2ccccc2c1CCNCc1ccc(/C=C/C(=O)NO)cc1 + Cc1cnc(CNC(=O)c2c(=O)c3ccc(N4CCCN(C)CC4)nc3n3c2sc2ccccc23)cn1",
    "quantityName": "viability, T/C",
    "val": "19.2%"
  },
  {
    "compound": "Cn1ncnc1[C@H]1c2n[nH]c(=O)c3cc(F)cc(c23)N[C@@H]1c1ccc(F)cc1 + Cc1[nH]c2ccc(F)cc2c1-c1nc2c3cccnc3c3ncccc3c2[nH]1",
    "quantityName": "viability, T/C",
    "val": "25.6%"
  },
  {
    "compound": "CCc1c2c(nc3ccc(O)cc13)-c1cc3c(c(=O)n1C2)COC(=O)[C@]3(O)CC + CN(C)c1ccc(Nc2c3ccc(NC(=O)CCN4CCCC4)cc3nc3cc(NC(=O)CCN4CCCC4)ccc23)cc1",
    "quantityName": "viability, T/C",
    "val": "18.7%"
  }
]

----------
Tested on: 885512-296-R-J2-PDC complex spheroid viability
Assay: Anticancer human tumor 885512-296-R-J2-PDC cell line growth inhibition [GQUAD]; active = viability on the fitted dose curve at most 10% of control; inactive = the rest;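 note: spheroids exposed to the compounds for one week; percent of tumor spheroid viability relative to DMSO vehicle control wells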
Conditions: second compound 10 µM; first compound 0.000999 µM
Labels: y = active, n = inactive

[
  {
    "molecule": "Cc1[nH]c2ccccc2c1CCNCc1ccc(/C=C/C(=O)NO)cc1 + Cc1[nH]c2ccc(F)cc2c1-c1nc2c3cccnc3c3ncccc3c2[nH]1",
    "measuredTarget": "885512-296-R-J2-PDC complex spheroid viability",
    "assignedClass": "y"
  },
  {
    "molecule": "CCc1c2c(nc3ccc(O)cc13)-c1cc3c(c(=O)n1C2)COC(=O)[C@]3(O)CC + Cc1[nH]c2ccc(F)cc2c1-c1nc2c3cccnc3c3ncccc3c2[nH]1",
    "measuredTarget": "885512-296-R-J2-PDC complex spheroid viability",
    "assignedClass": "y"
  },
  {
    "molecule": "CCc1c2c(nc3ccc(O)cc13)-c1cc3c(c(=O)n1C2)COC(=O)[C@]3(O)CC + Cc1cnc(CNC(=O)c2c(=O)c3ccc(N4CCCN(C)CC4)nc3n3c2sc2ccccc23)cn1",
    "measuredTarget": "885512-296-R-J2-PDC complex spheroid viability",
    "assignedClass": "y"
  },
  {
    "molecule": "CC[C@@]1(O)C(=O)OCc2c1cc1n(c2=O)Cc2cc3c(CN(C)C)c(O)ccc3nc2-1 + Cc1[nH]c2ccc(F)cc2c1-c1nc2c3cccnc3c3ncccc3c2[nH]1",
    "measuredTarget": "885512-296-R-J2-PDC complex spheroid viability",
    "assignedClass": "y"
  },
  {
    "molecule": "Cn1ncnc1[C@H]1c2n[nH]c(=O)c3cc(F)cc(c23)N[C@@H]1c1ccc(F)cc1 + Cc1[nH]c2ccc(F)cc2c1-c1nc2c3cccnc3c3ncccc3c2[nH]1",
    "measuredTarget": "885512-296-R-J2-PDC complex spheroid viability",
    "assignedClass": "y"
  },
  {
    "molecule": "CCc1c2c(nc3ccc(O)cc13)-c1cc3c(c(=O)n1C2)COC(=O)[C@]3(O)CC + CN(C)c1ccc(Nc2c3ccc(NC(=O)CCN4CCCC4)cc3nc3cc(NC(=O)CCN4CCCC4)ccc23)cc1",
    "measuredTarget": "885512-296-R-J2-PDC complex spheroid viability",
    "assignedClass": "n"
  }
]

----------
Tested on: 885512-296-R-J2-PDC complex spheroid viability
Assay: Anticancer human tumor 885512-296-R-J2-PDC cell line growth inhibition [GQUAD];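 note: spheroids exposed to the compounds for one week; percent of tumor spheroid viability relative to DMSO vehicle control wells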
Conditions: second compound 0.1 µM; first compound 0.316 µM; stronger effect = lower value
viability, T/C values for the compounds below.

[
  {
    "compound": "C#Cc1c(F)ccc2cc(O)cc(-c3ncc4c(N5CC6CCC(C5)N6)nc(OCC56CCCN5CC(F)C6)nc4c3F)c12 (stereo not drawn) + CN(C)c1ccc(Nc2c3ccc(NC(=O)CCN4CCCC4)cc3nc3cc(NC(=O)CCN4CCCC4)ccc23)cc1",
    "measuredTarget": "885512-296-R-J2-PDC complex spheroid viability",
    "viability, T/C": "99.8%"
  },
  {
    "compound": "C=CC(=O)N1CCN(c2nc(=O)n(-c3c(C)ccnc3C(C)C)c3nc(-c4c(O)cccc4F)c(F)cc23)C(C)C1 (stereo not drawn) + CN(C)c1ccc(Nc2c3ccc(NC(=O)CCN4CCCC4)cc3nc3cc(NC(=O)CCN4CCCC4)ccc23)cc1",
    "measuredTarget": "885512-296-R-J2-PDC complex spheroid viability",
    "viability, T/C": "101%"
  },
  {
    "compound": "Cn1ncnc1[C@H]1c2n[nH]c(=O)c3cc(F)cc(c23)N[C@@H]1c1ccc(F)cc1 + Cc1cnc(CNC(=O)c2c(=O)c3ccc(N4CCCN(C)CC4)nc3n3c2sc2ccccc23)cn1",
    "measuredTarget": "885512-296-R-J2-PDC complex spheroid viability",
    "viability, T/C": "21.1%"
  }
]

----------
System: 885512-296-R-J2-PDC complex spheroid viability
Assay: Anticancer human tumor 885512-296-R-J2-PDC cell line growth inhibition [GQUAD];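 note: spheroids exposed to the compounds for one week; percent of tumor spheroid viability relative to DMSO vehicle control wells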
Conditions: second compound 3.16 µM; first compound 10 µM; stronger effect = lower value
Measured viability, T/C values are reported for all entries that follow.
quantityName: viability, T/C (%)

[
  {
    "compound": "Nc1ccn(C2OC(CO)C(O)C2(F)F)c(=O)n1 (stereo unspecified) + Cc1[nH]c2ccc(F)cc2c1-c1nc2c3cccnc3c3ncccc3c2[nH]1",
    "measuredTarget": "885512-296-R-J2-PDC complex spheroid viability",
    "quantityName": "viability, T/C",
    "val": 1.86
  },
  {
    "compound": "C=CC(=O)N1CCN(c2nc(=O)n(-c3c(C)ccnc3C(C)C)c3nc(-c4c(O)cccc4F)c(F)cc23)C(C)C1 (stereo unspecified) + Cc1[nH]c2ccc(F)cc2c1-c1nc2c3cccnc3c3ncccc3c2[nH]1",
    "measuredTarget": "885512-296-R-J2-PDC complex spheroid viability",
    "quantityName": "viability, T/C",
    "val": 27.2
  },
  {
    "compound": "O=c1[nH]cc(F)c(=O)[nH]1 + CN(C)c1ccc(Nc2c3ccc(NC(=O)CCN4CCCC4)cc3nc3cc(NC(=O)CCN4CCCC4)ccc23)cc1",
    "measuredTarget": "885512-296-R-J2-PDC complex spheroid viability",
    "quantityName": "viability, T/C",
    "val": 59.1
  },
  {
    "compound": "O=c1[nH]cc(F)c(=O)[nH]1 + Cc1cnc(CNC(=O)c2c(=O)c3ccc(N4CCCN(C)CC4)nc3n3c2sc2ccccc23)cn1",
    "measuredTarget": "885512-296-R-J2-PDC complex spheroid viability",
    "quantityName": "viability, T/C",
    "val": 24.1
  },
  {
    "compound": "O=C(c1cc(Cc2n[nH]c(=O)c3ccccc23)ccc1F)N1CCN(C(=O)C2CC2)CC1 + CN(C)c1ccc(Nc2c3ccc(NC(=O)CCN4CCCC4)cc3nc3cc(NC(=O)CCN4CCCC4)ccc23)cc1",
    "measuredTarget": "885512-296-R-J2-PDC complex spheroid viability",
    "quantityName": "viability, T/C",
    "val": 28.7
  },
  {
    "compound": "CC1COCCN1c1cc(C2(S(C)(=N)=O)CC2)nc(-c2ccnc3[nH]ccc23)n1 (stereo unspecified) + Cc1[nH]c2ccc(F)cc2c1-c1nc2c3cccnc3c3ncccc3c2[nH]1",
    "measuredTarget": "885512-296-R-J2-PDC complex spheroid viability",
    "quantityName": "viability, T/C",
    "val": 1.38
  }
]
